Recorded values, source the supplement of paper PMC10567573.

B1: STK38L (parent)
chain: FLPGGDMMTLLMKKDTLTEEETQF

# Variants of: B1
# experiment_description: protein stability index of a GFP-peptide fusion (GPS, HEK-293T) (PSI 1-6); higher = more stable;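 note: lentivirally expressed fusions sorted by FACS into six bins by GFP to DsRed ratio, PSI derived from sequencing read proportions per bin multiplied by bin number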
# measurement_context: c terminus: a fixed tail appended
Label scheme for protein stability index: lower than 2 is -1, 2 and above is 1.

For orientation, consider the following solved cases.
M8Y: -1
G4N: 1
L2E: 1
Q23E: 1
F1D: 1

Exam item: Reported protein stability index reaches at least 2 for "L11P" ?
Marked response: 1

Exam item: Reported protein stability index reaches at least 2 for "L11M" ?
Marked response: 1

Exam item: Reported protein stability index reaches at least 2 for "L11Q" ?
Marked response: 1

Exam item: Reported protein stability index reaches at least 2 for "E20I" ?
Marked response: -1

Exam item: Reported protein stability index reaches at least 2 for "T22W" ?
Marked response: 1

Exam item: Reported protein stability index reaches at least 2 for "G5Y" ?
Marked response: 1

Exam item: Reported protein stability index reaches at least 2 for "G4I" ?
Marked response: 1

Exam item: Reported protein stability index reaches at least 2 for "T9P" ?
Marked response: 1
